# TARGET ENTITY: UniProt:Q05940
So I've got a bunch of molecules here, and I need their Ki values.

What reported Ki corresponds to COc1cc2c(cc1OC)[C@H]1CN(CC(C)C)[C@H](CC(C)C)CN1CC2 on UniProt:Q05940? > 500 nM

Same thing, different molecule: COc1cc2c(cc1OCC1CC1)CCN1C[C@@H](CC3CCC3)N(C)C[C@H]21 10 to 500 nM

Further, for COc1cc2c(cc1OCCCF)CCN1C[C@@H](CC(C)(C)C)N(C)C[C@H]21 ? < 10 nM

Please answer likewise for COc1cc2c(cc1OCCCF)CCN1C[C@@H](CC3CCC3)N(C)C[C@@H]21 > 500 nM

---

# TARGET ENTITY: VMAT2 (Homo sapiens (Human), UniProt Q05940)
# Sequence (Q05940 whole entry): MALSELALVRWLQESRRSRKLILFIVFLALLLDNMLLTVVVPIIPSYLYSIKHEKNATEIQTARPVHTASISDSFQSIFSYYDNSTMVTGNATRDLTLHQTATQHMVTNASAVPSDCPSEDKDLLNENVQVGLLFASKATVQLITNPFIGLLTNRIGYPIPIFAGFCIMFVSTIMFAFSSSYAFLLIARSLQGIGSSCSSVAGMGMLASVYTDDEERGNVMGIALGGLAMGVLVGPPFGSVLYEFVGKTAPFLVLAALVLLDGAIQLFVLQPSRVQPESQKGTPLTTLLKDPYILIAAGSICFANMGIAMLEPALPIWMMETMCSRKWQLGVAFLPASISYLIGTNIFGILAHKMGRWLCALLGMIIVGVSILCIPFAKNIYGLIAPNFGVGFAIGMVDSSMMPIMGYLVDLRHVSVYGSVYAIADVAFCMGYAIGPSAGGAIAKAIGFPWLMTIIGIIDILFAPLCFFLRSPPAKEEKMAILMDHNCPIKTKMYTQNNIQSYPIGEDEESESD
# ASSAY EXPLANATION: VMAT2 radioligand binding assay: competition against 3H-dihydrotetrabenezine on human platelet homogenate (modified procedure)
# PARTICULARS: 10 nM 3H-dihydrotetrabenezine, 25° C., 90 minutes
pKi: −log10 of the molar value.
For each entry below, report its pKi value.

Data request, read-out pKi, for COc1cc2c(cc1OC)[C@@H]1CN(C)[C@H](CC(C)C)CN1CC2 < 6.30

Would you mind doing COc1cc2c(cc1OCC(F)(F)F)CCN1C[C@@H](CC(C)C)N(C)C[C@H]21 as well? > 8.00

Follow-up entry: CCOc1cc2c(cc1OC)[C@H]1CN(C)[C@H](CC(C)C)CN1CC2 > 8.00

Another compound to check: COc1cc2c(cc1OCC(F)(F)F)CCN1C[C@@H](CC(C)(C)C)N(C)C[C@H]21 > 8.00

Now this one: COc1cc2c(cc1OCC1CC1)CCN1C[C@@H](CC(C)(C)C)N(C)C[C@H]21 > 8.00

Try the compound COc1cc2c(cc1OCCCF)CCN1C[C@@H](CC(C)C)N(C)C[C@@H]21 < 6.30

Moving on to the next compound: COc1cc2c(cc1OCCCC(F)(F)F)CCN1C[C@@H](CC3CCC3)N(C)C[C@H]21 6.30 to 8.00

Thanks! And CCN1C[C@H]2c3cc(OC)c(OC)cc3CCN2C[C@H]1CC(C)C ? < 6.30

---

pKi: −log10 of the molar value.
Assay system VMAT2 (Homo sapiens (Human)); read-out recorded as pKi.

pKi lookup needed for COc1cc2c(cc1OC1CC1)CCN1C[C@@H](CC(C)C)N(C)C[C@H]21 , thanks. 6.30 to 8.00

// same read-out, input: COc1cc2c(cc1OCCCF)CCN1C[C@@H](CC(C)C)N(C)C[C@H]21 6.30 to 8.00

Repeat for the following compound: C=CCOc1cc2c(cc1OC)[C@H]1CN(C)[C@H](CC(C)C)CN1CC2 > 8.00

Moving on to CCCOc1cc2c(cc1OC)[C@H]1CN(C)[C@H](CC(C)C)CN1CC2 > 8.00

Now consider COc1cc2c(cc1OCCCC(F)(F)F)CCN1C[C@@H](CC(C)(C)C)N(C)C[C@H]21 . > 8.00

Next up: COc1cc2c(cc1OCCCF)CCN1C[C@@H](CC(C)(C)C)N(C)C[C@@H]21 6.30 to 8.00

# iterate: COc1cc2c(cc1OCC1CCC1)CCN1C[C@@H](CC3CCC3)N(C)C[C@H]21 > 8.00

---

Below are Ki values measured for VMAT2 (Homo sapiens (Human)).

Field request: Ki | item: COc1cc2c(cc1OC)[C@H]1CN(C)[C@H](CC(C)(C)C)CN1CC2 [Compound 11-2] < 10 nM

Okay, and COc1cc2c(cc1OC(C)C)CCN1C[C@@H](CC(C)C)N(C)C[C@H]21 [Compound 5-2] ? 10 to 500 nM

Input COc1cc2c(cc1OCCCC(F)(F)F)CCN1C[C@@H](CC(C)C)N(C)C[C@H]21 [Compound 5-13] < 10 nM

Likewise for COc1cc2c(cc1OC1CCC1)CCN1C[C@@H](CC(C)C)N(C)C[C@H]21 [Compound 5-16] ? < 10 nM

# iterate: COc1cc2c(cc1OC)[C@@H]1CN(C)[C@H](CC(C)(C)C)CN1CC2 [Compound 12-2] > 500 nM

Param item: COc1cc2c(cc1OCCCCF)CCN1C[C@@H](CC3CCC3)N(C)C[C@H]21 [Compound 8-8] 10 to 500 nM

Same lookup for COc1cc2c(cc1OC(C)C)CCN1C[C@@H](CC(C)(C)C)N(C)C[C@H]21 [Compound 11-13] , please. < 10 nM

What do you have for COc1cc2c(cc1OCCC(F)(F)F)CCN1C[C@@H](CC(C)(C)C)N(C)C[C@H]21 [Compound 11-5] ? < 10 nM

Try the molecule COc1cc2c(cc1OC)[C@H]1CN(C)[C@H](CC(C)C)CN1CC2 [Compound 2-2] 10 to 500 nM

Follow-up entry: COc1cc2c(cc1OC1CC1)CCN1C[C@@H](CC(C)C)N(C)C[C@@H]21 [Compound 6-4] > 500 nM

Moving on to the next molecule: COc1cc2c(cc1OCC1CCC1)CCN1C[C@@H](CC(C)(C)C)N(C)C[C@H]21 [Compound 11-8] < 10 nM

Also COc1cc2c(cc1OC)[C@@H]1CN(CC(C)C)[C@H](CC(C)C)CN1CC2 [Compound 3-3] ? > 500 nM

Now this one: COc1cc2c(cc1OC(C)C)CCN1C[C@@H](CC(C)C)N(C)C[C@@H]21 [Compound 6-1] > 500 nM

What do you have for COCCOc1cc2c(cc1OC)[C@H]1CN(C)[C@H](CC(C)(C)C)CN1CC2 [Compound 11-11] ? 10 to 500 nM

Can you check COc1cc2c(cc1OCCCF)CCN1C[C@@H](CC3CCC3)N(C)C[C@H]21 [Compound 8-1] next? 10 to 500 nM

Similarly, COc1cc2c(cc1OCCC(F)(F)F)CCN1C[C@@H](CC(C)C)N(C)C[C@H]21 [Compound 5-19] ? < 10 nM

Follow-up item: COc1cc2c(cc1OCC1CCC1)CCN1C[C@@H](CC(C)C)N(C)C[C@H]21 [Compound 5-11] < 10 nM

Then this molecule: COc1cc2c(cc1OCC1CC1(F)F)CCN1C[C@@H](CC3CCC3)N(C)C[C@H]21 (stereo partly drawn) [Compound 8-3] 10 to 500 nM

Cool, now COc1cc2c(cc1OCC(F)(F)F)CCN1C[C@@H](CC3CCC3)N(C)C[C@H]21 [Compound 8-2] < 10 nM

Also, CCN1C[C@@H]2c3cc(OC)c(OC)cc3CCN2C[C@H]1CC(C)C [Compound 2-1] please. 10 to 500 nM

Query CCOc1cc2c(cc1OC)[C@H]1CN(C)[C@H](CC(C)(C)C)CN1CC2 [Compound 11-12] next < 10 nM

And what about the molecule COc1cc2c(cc1OC1CCCC1)CCN1C[C@@H](CC(C)C)N(C)C[C@H]21 [Compound 5-7] ? < 10 nM

And for COc1cc2c(cc1OCCCCF)CCN1C[C@@H](CC(C)(C)C)N(C)C[C@H]21 [Compound 11-10] ? < 10 nM

What do you have for COc1cc2c(cc1OCCF)CCN1C[C@@H](CC(C)C)N(C)C[C@H]21 [Compound 5-4] ? 10 to 500 nM

Now give it for COc1cc2c(cc1OCC1CC1(F)F)CCN1C[C@@H](CC(C)C)N(C)C[C@H]21 (stereo partly drawn) [Compound 5-18] too. < 10 nM

Please answer likewise for COCCOc1cc2c(cc1OC)[C@H]1CN(C)[C@H](CC(C)C)CN1CC2 [Compound 5-10] 10 to 500 nM

Again, but for COc1cc2c(cc1OCCF)CCN1C[C@@H](CC3CCC3)N(C)C[C@H]21 [Compound 8-4] 10 to 500 nM

Also, COc1cc2c(cc1OCC1CC1(F)F)CCN1C[C@@H](CC(C)(C)C)N(C)C[C@H]21 (stereo partly drawn) [Compound 11-4] please. < 10 nM

Please answer likewise for COc1cc2c(cc1OCCCCF)CCN1C[C@@H](CC(C)C)N(C)C[C@H]21 [Compound 5-14] < 10 nM

Param item: COc1cc2c(cc1OCC(C)C)CCN1C[C@@H](CC(C)C)N(C)C[C@H]21 [Compound 5-9] < 10 nM

Would you kindly repeat that for COc1cc2c(cc1OCCF)CCN1C[C@@H](CC(C)(C)C)N(C)C[C@H]21 [Compound 11-6] ? < 10 nM

Subsequent entry: COc1cc2c(cc1OCC1CC1)CCN1C[C@@H](CC(C)C)N(C)C[C@H]21 [Compound 5-15] < 10 nM

And COc1cc2c(cc1OCCF)CCN1C[C@@H](CC(C)C)N(C)C[C@@H]21 [Compound 6-3] ? > 500 nM
